Kindly state inhibition at 10 µM for each of the entries shown.
target: CYP3A4 (Homo sapiens); experiment: Cytochrome P450 (CYP450) Inhibition Assay, CYP3A4 (Vivid fluorescence, BOMCC substrate); settings: human, P450 Baculosomes (recombinant CYP3A4), probe BOMCC (Vivid substrate)
Sequence (P08684 whole entry): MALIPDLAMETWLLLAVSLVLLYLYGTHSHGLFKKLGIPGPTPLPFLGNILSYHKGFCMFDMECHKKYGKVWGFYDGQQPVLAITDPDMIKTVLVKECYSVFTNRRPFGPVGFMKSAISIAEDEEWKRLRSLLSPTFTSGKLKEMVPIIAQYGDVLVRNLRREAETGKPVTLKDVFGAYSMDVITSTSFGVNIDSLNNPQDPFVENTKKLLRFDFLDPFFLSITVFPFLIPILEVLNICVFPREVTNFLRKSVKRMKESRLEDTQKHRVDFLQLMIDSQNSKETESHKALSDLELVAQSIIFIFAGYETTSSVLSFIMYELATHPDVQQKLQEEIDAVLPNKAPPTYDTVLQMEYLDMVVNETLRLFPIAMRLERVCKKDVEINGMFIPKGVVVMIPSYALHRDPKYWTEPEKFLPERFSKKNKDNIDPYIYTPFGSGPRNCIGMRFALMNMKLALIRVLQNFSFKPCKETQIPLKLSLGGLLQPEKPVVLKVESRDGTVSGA

Worked cases, inhibition at 10 µM given:
CN(C)c1ncc(CN2C(=O)C3(COc4cc5c(cc43)OCO5)c3ccccc32)s1 (centres unmarked)
> 50%
CN1C(=O)C2(COc3cc4c(cc32)OCCO4)c2c(-c3ccc4ccc(=O)oc4c3)cccc21 (centres unmarked)
> 50%
CCOCCNC(=O)c1ccc(CN2C(=O)C3(COc4cc5c(cc43)CCO5)c3ccccc32)cc1 (centres unmarked)
> 50%
CCCCCC(=O)Nc1cccc2c1C1(COc3cc4c(cc31)OCCO4)C(=O)N2C (centres unmarked)
< 50%
C[C@H](O)CN1C(=O)C2(COc3cc4c(cc32)CCO4)c2ccccc21 (some centres unmarked)
< 50%
O=C1N(Cc2ccccn2)c2ccccc2C12COc1ccc3nonc3c12 (centres unmarked)
< 50%
CC(C)CCN1C(=O)C2(COc3cc4c(cc32)OCCO4)c2ccccc21 (centres unmarked)
< 50%

inhibition at 10 µM value, target or system CYP3A4 (Homo sapiens), for O=C1N(Cc2cccc(OC(F)(F)F)c2)c2ccccc2C12COc1cc3c(cc12)OCCO3 (centres unmarked) : > 50%
